# Tested on: U251 CNS
# Assay Protocol: NCI tumour cell line growth inhibition, 48 h
# Lookup of reported TGI keyed by entry
Metric Name: TGI

> print(dat)
                                    compound  reported.value
 1       O=C(O)/C(=C\c1ccncc1)c1cccc2ccccc12        > 100 µM
 2  [N-]=[N+]=C(C(=O)N1CCCC1=O)S(=O)(=O)c1ccccc1        > 100 µM
 3        CC#Cc1nc(Nc2cc(C)[nH]n2)c2ccccc2n1         27.4 µM
 4  CCCCCCCCCCC(C)CCCCCCC(=O)O (stereo not drawn)        > 100 µM
 5  Fc1cc(-c2cc(-c3ccc4c(c3)OCO4)n[nH]2)c(Cl)cc1Cl         3.63 µM
 6     CC(=O)c1nc2ccccc2n1CC(=O)c1cccc(Cl)c1        > 100 µM
 7  CCCCCCCCCCCCCCCCCC(=O)Nc1ccn(C2OC(CO)C(O)C2O)c(=O)n1 (stereo not drawn)        > 100 µM
 8  Cc1cc(S(=O)(=O)/N=C(/NN)NNc2cccc(C(F)(F)F)n2)c(S)cc1Cl         33.6 µM
 9  CNc1ncnc2c1cnn2Cc1cn(COCC(O)CO)nn1 (stereo not drawn)        > 100 µM
10           O=C(O)C(=O)/C=C(\O)c1ccc(Br)cc1        > 100 µM
11  Cc1cc(Nc2cc(N)ncn2)c(=O)n2c1C(=O)NC21CCCCC1        > 100 µM
12  COC1OC2=CCC3C(=O)NC(=O)C3C2[C@H](OCc2ccccc2)C1OCc1ccccc1 (stereo partly drawn)         33.3 µM
13  Cc1cn(S(=O)(=O)c2ccccc2)c2c(OCc3ccccc3)cc(NS(C)(=O)=O)cc12       > 65.7 µM
14  CC(=O)[O-].O=C([CH-]C(=O)c1ccccc1)c1ccccc1.O=C([CH-]C(=O)c1ccccc1)c1ccccc1.[Sm+3]         35.3 µM
15  O=c1[nH]c(=S)c2cc3c(=S)[nH]c(=O)n(CCO)c3nc2n1CCO        > 100 µM
16  Cc1cc(C(=O)c2ccccc2)c(C)c2c1[nH]c1ccc(Cl)cc12         16.2 µM
17    COC(=O)c1nn(C(=N)c2ccc(Cl)cc2)c2c1CCC2        > 100 µM
18      O=C(O)c1cc2ccccc2c2c1C(=O)c1ccccc1-2        > 100 µM

====

# Test system: MALME-3M melanoma
# Assay Protocol: NCI tumour cell line growth inhibition, 48 h
Metric Name: GI50

> print(dat)
                                   molecule  metric.name  reported.value
1                  CC(=O)c1cc(O)c2ccccc2c1O         GI50         18.2 µM
2  O=C1C(Cl)=C(Nc2cccc(C(F)(F)F)c2)C(=O)N1Cc1ccc(Cl)cc1         GI50     < 0.0488 µM
3  C=C(C(=O)O[C@H]1C(=O)C2=C(C)CCC3C(=C)C(=O)O[C@@H]3C2[C@]1(C)O)C1CC[C@]2(C)CCCC(=C)[C@H]2C1 (stereo not given in full)         GI50         15.5 µM
4     O=C(NC(=S)Nc1cc(Cl)ccc1O)c1cccc(Br)c1         GI50         9.33 µM
5  Cc1ccc(-c2cc(O)c(-c3ccc(C)cc3C)cc2O)c(C)c1         GI50         12.9 µM

====

# Lookup of reported TGI keyed by entry
# Test system: CCRF-CEM leukemia
# Assay Protocol: NCI tumour cell line growth inhibition, 48 h
Metric Name: TGI

> print(dat)
                                    molecule     assayed.system  reported.value
 1       S=c1[nH]c2ccc(I)cc2c(=S)n1Cc1ccccc1  CCRF-CEM leukemia         6.06 µM
 2                          NC(=S)NN=C1CSSC1  CCRF-CEM leukemia        > 100 µM
 3            O=C1CSc2cc([N+](=O)[O-])ccc2N1  CCRF-CEM leukemia        > 100 µM
 4  Cc1sc2nc3n(c(=O)c2c1C)N=CN(c1ccc(F)cc1)C3  CCRF-CEM leukemia        > 100 µM
 5  C=C(c1ccccc1)c1ccccc1-c1cc(-c2ccccc2)cc(-c2ccccc2)n1  CCRF-CEM leukemia        > 100 µM
 6       COc1ccc2ccc3oc([N+](=O)[O-])cc3c2c1  CCRF-CEM leukemia         10.6 µM
 7  COc1cc(CS(=O)c2ccc(O)cc2)cc(OC)c1OC (stereo not given)  CCRF-CEM leukemia        > 100 µM
 8        CCOC(=O)C(NC(=O)OC(C)(C)C)C(=O)OCC  CCRF-CEM leukemia        > 100 µM
 9  O=c1c2ccccc2nc(N/N=C/c2ccccc2O)n1-c1ccccc1  CCRF-CEM leukemia        > 100 µM
10                   Cc1ccc(CCC(=O)C(=O)O)s1  CCRF-CEM leukemia        > 100 µM

====

# Test system: HCT-15 colon
# Assay Protocol: NCI tumour cell line growth inhibition, 48 h
Metric Name: TGI

> print(dat)
                                    molecule  reported.value
 1  Cc1cc(C(=O)c2ccccc2)c(C)c2c1[nH]c1ccc(Cl)cc12          5.1 µM
 2    CCN(CC)c1ccc(/C=C/C=C2\NC(=O)NC2=O)cc1        > 100 µM
 3           Cc1ccc(-n2cc([Si](C)(C)C)nn2)s1        > 100 µM
 4      Cn1c(O)c(C=Nc2ccccc2Cl)c(=O)n(C)c1=O         41.4 µM
 5  CC(C)(C)[Si](C)(C)OCC1OC(n2cnc3c(=O)[nH]c(N)nc32)C(O[Si](C)(C)C(C)(C)C)C1O[Si](C)(C)C(C)(C)C (stereo unspecified)        > 100 µM
 6            O=C1CSc2cc([N+](=O)[O-])ccc2N1        > 100 µM
 7  CC(C)(C)OC(=O)NCC(=O)N1CCN(C(=O)CNC(=O)OC(C)(C)C)CC1        > 100 µM
 8  CCOC(=O)[C@@H]1ON2OC(OC3CCCC3(c3ccccc3)c3ccccc3)C(OC(C)=O)[C@H]3OC(=O)[C@@H]1C32 (stereo partly specified)        > 100 µM
 9  CCN(CC)C(=S)[S][Bi]([S]C(=S)N(CC)CC)[S]C(=S)N(CC)CC        0.348 µM
10  O=c1oc2ccccc2c(O)c1C(C/C(CCN1CCCC1)=N\Nc1ccccc1)c1ccccc1 (stereo unspecified)        > 100 µM
11  COc1cc(CS(=O)c2ccc(O)cc2)cc(OC)c1OC (stereo unspecified)        > 100 µM

====

# System: RPMI-8226 leukemia
# Assay Protocol: NCI tumour cell line growth inhibition, 48 h; in the data active means GI50 below about 0.43 µM; inactive means the rest
Classes used: 1 = active, 0 = inactive

> print(dat)
                                   compound  assigned.category
1  CCC[CH2][Sn]1([CH2]CCC)[O]CC(C)[O]1 (stereo not given)                  1
2  O=c1oc2c(C(F)(F)F)cccc2cc1-c1csc(Nc2ccc(OCCF)cc2)n1                  1
3  CC1(C)C(=O)/C(=C\c2cccnc2)C[C@]2(C)[C@H]3CC[C@@H]4[C@@H](C(=O)/C=C/c5ccncc5)CC[C@@]4(C)[C@]3(C)CC[C@@H]12                  0
4     O=C(CCc1ccc(O)cc1)N/N=C/c1cc(Br)ccc1O                  0
5     O=C(NC(=S)Nc1cc(Cl)ccc1O)c1cccc(Br)c1                  0

====

# Test system: PC-3 prostate
# Assay Protocol: NCI tumour cell line growth inhibition, 48 h
Decision: TGI >= 30 µM yields rule met, all other cases yield rule not met.

> print(dat)
                                    molecule  assigned.category
 1                       O=c1ccc2ccc(O)cc2o1           rule met
 2   O=C(O)Cn1cc([N+](=O)[O-])c(=O)c2ccccc21           rule met
 3    CCN(CC)c1ccc(/C=C/C=C2\NC(=O)NC2=O)cc1           rule met
 4  CC(=O)c1c2n(n(-c3ccccc3)c1=O)C(=O)c1nccnc1-2           rule met
 5  Cc1ccc(-c2cc(O)c(-c3ccc(C)cc3C)cc2O)c(C)c1           rule met
 6  CNc1ncnc2c1cnn2Cc1cn(COCC(O)CO)nn1 (stereo unspecified)           rule met
 7  COc1cc(Br)c(CC2C3=C(CCN2C(=O)C2CCC2)CC(=O)CC3)cc1O (stereo unspecified)           rule met
 8  C[C@@H]1COCCN1c1cc(C2(O)C[C@H]3CC[C@@H](C2)O3)c2cnn(-c3ccn[nH]3)c2n1 (stereo partly specified)       rule not met
 9  OC(CC(O)(C(F)(F)F)C(F)(F)F)c1ccc(C(O)CC(O)(C(F)(F)F)C(F)(F)F)cc1 (stereo unspecified)           rule met
10           Cc1ccc(-n2cc([Si](C)(C)C)nn2)s1           rule met
11  Cc1cn(S(=O)(=O)c2ccccc2)c2c(OCc3ccccc3)cc(NS(C)(=O)=O)cc12       rule not met
12  C[C@@H](Nc1nc(Nc2ccc(F)c(Cl)c2)nc2ccccc12)C1CC1       rule not met
13  CCOC(=O)[C@@H]1ON2OC(OC3CCCC3(c3ccccc3)c3ccccc3)C(OC(C)=O)[C@H]3OC(=O)[C@@H]1C32 (stereo partly specified)           rule met
14     O=C(CCc1ccc(O)cc1)N/N=C/c1cc(Br)ccc1O           rule met
15  COc1cc2c3c(n(C)c(=O)c2cc1OC)-c1cc2c(cc1/C3=C\CCNCCCN)OCO2       rule not met
16  O=C1C(=Cc2ccc(Cl)c(Cl)c2)C([O-])=C([P+](c2ccccc2)(c2ccccc2)c2ccccc2)C([O-])=C1[P+](c1ccccc1)(c1ccccc1)c1ccccc1       rule not met
17  CCCCCCCCCCCCCC(=O)N(CCCCCCCCC)CC(O)C(O)C(OC1OC(CO)C(O)C(O)C1O)C(O)CO (stereo unspecified)           rule met
18  COC(=O)c1c(O)ccc2c1c1c(n2Cc2ccccc2)C(=O)c2ccccc2C1           rule met
19  CCOC(=O)c1c(-c2cccc3ccccc23)c(C#N)c(=S)n(C2OC(COC(C)=O)C(OC(C)=O)C(OC(C)=O)C2OC(C)=O)c1C (stereo unspecified)           rule met
20  O=C(CCCCC(=O)N/N=C\c1ccccc1O)N/N=C\c1ccccc1O           rule met
21                            NCCCNCCCCN1CC1           rule met
22  C=CCC(C(=O)Nc1cccc2[nH]cnc12)C(=O)OCC (stereo unspecified)           rule met
23       O=C(O)/C(=C\c1ccncc1)c1cccc2ccccc12           rule met
24       S=c1[nH]c2ccc(I)cc2c(=S)n1Cc1ccccc1       rule not met

Each recorded value in this set is attributed to PubChem BioAssay (NCI).
